experiment-notes: chemical genetic growth profiling, strain panel (AID 1159580);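 further: tested at 20 µM; growth read once vehicle control cultures reached saturation at 30 °C; 1 = growth at the plate median or of vehicle wells; lower values mean less growth of the strain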
study-conditions: S. cerevisiae deletion strains, growth OD, locus YLR268W, strain sec22, hits give low values
About 2,000 (36%) of roughly 5,500 compounds were called active. About 18% were inconclusive and are not listed. This is one part of the list.
Measured normalized growth accompanies every entry in the list below.

{"compound": "CSc1nc(NC(C)C)nc(NC(C)C)n1", "normalized growth": 1.01}
{"compound": "CC(=O)[C@@]1(O)CCC2C3C=C(Cl)C4=CC(=O)[C@@H]5CC5[C@]4(C)C3CC[C@@]21C (stereo partly drawn)", "normalized growth": 1.02}
{"compound": "COC1C(O)C(O[C@H]2CC[C@]3(C=O)C4C(CC[C@]3(O)C2)[C@@]2(O)CC[C@H](C3=CC(=O)OC3)[C@@]2(C)C[C@H]4OC(C)=O)OC(C)C1OC(C)=O (stereo partly drawn)", "normalized growth": 1.03}
{"compound": "CC1(C)C(=O)CC[C@@]2(C)C1C[C@@H](O)[C@@]1(C)C3=CC(=O)O[C@@H](c4ccoc4)[C@]3(C)CCC21 (stereo partly drawn)", "normalized growth": 0.976}
{"compound": "CC(=O)O[C@@H]1CC2C(C)(CC[C@H](O)C2(C)C)C2CC[C@]3(C)C(=CC(=O)O[C@H]3c3ccoc3)C21C (stereo partly drawn)", "normalized growth": 0.988}
{"compound": "COC(=O)CC1C(C)(C)C(OC(C)=O)[C@@H]2[C@@H](OC(C)=O)[C@]34O[C@@]2(O)[C@]1(C)C3CC[C@]1(C)C4=CC(=O)O[C@H]1c1ccoc1 (stereo partly drawn)", "normalized growth": 0.983}
{"compound": "COc1cc(C(=O)O)cc(OC)c1OC", "normalized growth": 1.02}
{"compound": "C[C@H]1[C@H](C)CC[C@]2(C(=O)O)CC[C@]3(C)C(=CCC4[C@@]5(C)C[C@@H](O)[C@H](O)[C@@](C)(CO)C5[C@H](O)C[C@]43C)[C@H]12 (stereo partly drawn)", "normalized growth": 0.932}
{"compound": "CC(C)Nc1nc(Cl)nc(NC(C)C)n1", "normalized growth": 0.992}
{"compound": "COP(N)(=O)SC (stereo not drawn)", "normalized growth": 1.01}
{"compound": "C[C@]12CCC3C(CC[C@]4(O)C[C@@H](O)CC[C@]34C=O)[C@@]1(O)CCC2C1=CC(=O)OC1 (stereo partly drawn)", "normalized growth": 0.979}
{"compound": "CNC[C@H](O)c1cccc(O)c1", "normalized growth": 1.02}
{"compound": "CC[C@H]1CN2CCC1C[C@@H]2[C@@H](O)c1ccnc2ccc(OC)cc12 (stereo partly drawn)", "normalized growth": 1.02}
{"compound": "O=C(O)c1ccccc1O", "normalized growth": 1.04}
{"compound": "C[C@@H]1CC[C@@]23CCC4(C)[C@@](C=CC5[C@@]6(C)CC[C@H](O)C(C)(C)C6CC[C@]54C)(OC2=O)C3[C@H]1C (stereo partly drawn)", "normalized growth": 1.03}
{"compound": "CO[C@@H]1[C@@H](OC(N)=O)[C@@H](O)[C@H](Oc2ccc3c(O)c(NC(=O)c4ccc(O)c(CC=C(C)C)c4)c(=O)oc3c2C)OC1(C)C", "normalized growth": 0.955}
{"compound": "Nc1nc(/C(=C/CC(=O)O)C(=O)N[C@@H]2C(=O)N3C(C(=O)O)=CCS[C@H]23)cs1", "normalized growth": 0.987}
{"compound": "O=C(/C=C(\\O)c1ccccc1)c1ccccc1O", "normalized growth": 0.836}

====

experiment-notes: chemical genetic growth profiling, strain panel (AID 1159580);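 further: tested at 20 µM; growth read once vehicle control cultures reached saturation at 30 °C; 1 = growth at the plate median or of vehicle wells; lower values mean less growth of the strain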
study-conditions: S. cerevisiae deletion strains, growth OD, locus YDR137W, strain rgp1, hits give low values
About 2,000 (36%) of roughly 5,500 compounds were called active. Another 18% or so got no clear call; they are omitted. The list shows a part of the results.

{"molecule": "C=CCSC[C@@H](N)C(=O)O", "normalized growth": 1.01}
{"molecule": "C[C@@H]1O[C@@H](O[C@H]2CC[C@]3(C=O)C4CC[C@]5(C)[C@@H](C6=CC(=O)OC6)CC[C@]5(O)C4CC[C@]3(O)C2)[C@H](O)[C@H](O)[C@H]1O (some centres not stated)", "normalized growth": 1.01}
{"molecule": "Cc1ccccc1N1C(=O)c2cc(S(N)(=O)=O)c(Cl)cc2NC1C (configuration not stated)", "normalized growth": 1}
{"molecule": "C=CCSSSCC=C", "normalized growth": 0.984}
{"molecule": "CC1CCCC(C)N1NC(=O)c1ccc(Cl)c(S(N)(=O)=O)c1 (configuration not stated)", "normalized growth": 1.01}
{"molecule": "COC(=O)C(N)CS (configuration not stated)", "normalized growth": 0.924}
{"molecule": "CC1Cc2ccccc2N1NC(=O)c1ccc(Cl)c(S(N)(=O)=O)c1 (configuration not stated)", "normalized growth": 1.01}

====

experiment-notes: chemical genetic growth profiling, strain panel (AID 1159580);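 further: tested at 20 µM; growth read once vehicle control cultures reached saturation at 30 °C; 1 = growth at the plate median or of vehicle wells; lower values mean less growth of the strain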
study-conditions: S. cerevisiae deletion strains, growth OD, locus YER016W, strain bim1, hits give low values
The campaign covered roughly 5,500 compounds. About 2,000 (36%) were called active. Inconclusive results (about 18%) are left out. The list shows a part of the results.
Consider the cut-off 1. If the recorded normalized growth is strictly smaller, the label is class 1; if not, the label is class 0.

{"compound": "CC(=O)OCC(=O)[C@@]1(O)CCC2C3C[C@H](C)C4=CC(=O)C=CC4(C)C3[C@@H](O)CC21C (some centres not stated)", "assigned-category": "class 0"}
{"compound": "CC(C)c1cccc(O)c(=O)c1", "assigned-category": "class 1"}
{"compound": "CC1(C)S[C@@H]2[C@H](NC(=O)C(C(=O)O)c3ccccc3)C(=O)N2[C@H]1C(=O)O (some centres not stated)", "assigned-category": "class 1"}
{"compound": "CCC(=O)OCC(=O)C1(OC(=O)CC)C(C)CC2C3C(Cl)CC4=CC(=O)C=CC4(C)C3C(O)CC21C (configuration not stated)", "assigned-category": "class 0"}
{"compound": "CO[C@@H]1[C@@H](OC(N)=O)[C@@H](O)[C@H](Oc2ccc3c(O)c(NC(=O)c4ccc(O)c(CC=C(C)C)c4)c(=O)oc3c2C)OC1(C)C", "assigned-category": "class 0"}

====

Measured normalized growth accompanies every entry in the list below.
experiment-notes: chemical genetic growth profiling, strain panel (AID 1159580);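 further: tested at 20 µM; growth read once vehicle control cultures reached saturation at 30 °C; 1 = growth at the plate median or of vehicle wells; lower values mean less growth of the strain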
study-conditions: S. cerevisiae deletion strains, growth OD, locus YDR150W, strain NUM1, hits give low values
The whole screen tested about 5,500 compounds, of which about 2,000 (36%) were called active. Not shown: some 18% with an inconclusive outcome. The list shows a part of the results.

{"compound": "O=C(CCCN1CCC(O)(c2ccc(Cl)cc2)CC1)c1ccc(F)cc1", "normalized growth": 0.949}
{"compound": "O=C(NCCCCO)OCC1c2ccccc2-c2ccccc21", "normalized growth": 0.986}
{"compound": "O=[N+]([O-])c1cnc2ccccn12", "normalized growth": 0.964}
{"compound": "OCC(O)Cn1c2ccccc2c2ccccc21 (centres undefined)", "normalized growth": 1.03}
{"compound": "CCn1nc(C(=O)O)c(=O)c2cc3c(cc21)OCO3", "normalized growth": 1.01}
{"compound": "CCOC(=O)c1nnc2cc(C)nn2c1C", "normalized growth": 0.951}
{"compound": "CSCCC(N)C(=O)NC(CC(C)C)C(=O)NC(Cc1ccccc1)C(=O)O (centres undefined)", "normalized growth": 1.02}
{"compound": "COC(=O)Cc1cc(OC)c(OC)cc1[N+](=O)[O-]", "normalized growth": 1.01}
{"compound": "CC(=O)CS(=O)(=O)c1ccc(Cl)cc1", "normalized growth": 0.969}
{"compound": "N[C@H](CCC(=O)NCS(=O)(=O)O)C(=O)O", "normalized growth": 1}
{"compound": "NC(=NS(=O)(=O)c1cc(Cl)c(Oc2ccc([N+](=O)[O-])cc2Cl)c(Cl)c1)c1cccnc1", "normalized growth": 0.948}
{"compound": "CCNC(=O)N1CCN(CCCC(c2ccc(F)cc2)c2ccc(F)cc2)CC1", "normalized growth": 0.982}
{"compound": "COc1cc([N+](=O)[O-])c(OC)cc1SCC(=O)NNC(=O)c1cc(OC)c(OC)c(OC)c1", "normalized growth": 0.942}
{"compound": "CCCCCC(O)C1C(=O)OC(C)C(O)/C=C/C=C/C=C/C=C/C=C(\\C)C(O)CC(O)CC(O)CC(O)CC(O)CC(O)CC1O (centres undefined)", "normalized growth": 1.02}
{"compound": "CCn1nc(C)cc1C(=O)O", "normalized growth": 0.914}
{"compound": "Clc1ccc2ocnc2c1", "normalized growth": 0.95}
{"compound": "O=C1NCN(c2ccccc2)C12CCN(CCCC(c1ccc(F)cc1)c1ccc(F)cc1)CC2", "normalized growth": 0.987}
{"compound": "CC(=O)c1ccccc1OC(=O)c1c(-c2c(Cl)cccc2Cl)noc1C", "normalized growth": 0.882}
{"compound": "N#CC(=C(\\N)Sc1ccccc1N)/C(C#N)=C(/N)Sc1ccccc1N", "normalized growth": 1.01}
{"compound": "O=C(Nc1ccccc1)N1CCN(C(c2ccccc2)c2ccccc2)CC1", "normalized growth": 1}
{"compound": "NC(=S)CS(=O)(=O)c1ccc(C(F)(F)F)cc1", "normalized growth": 0.998}
{"compound": "c1ccc(-c2ncc3ccccn23)cc1", "normalized growth": 0.974}
{"compound": "CN1c2ccccc2C(=O)/C(=N/Nc2ccccc2F)S1(=O)=O", "normalized growth": 1.04}
{"compound": "O=C(CCCN1CCC2(CC1)C(=O)NCN2c1ccccc1)c1ccc(F)cc1", "normalized growth": 0.996}
